# experimentalTarget: 5-HT1A receptor (CHO/5-HT1A cells) (Homo sapiens)
# Construct: expressed in transfected cells; host or cells: CHO/5-HT1A cells
# Sequence (P08908 1-422): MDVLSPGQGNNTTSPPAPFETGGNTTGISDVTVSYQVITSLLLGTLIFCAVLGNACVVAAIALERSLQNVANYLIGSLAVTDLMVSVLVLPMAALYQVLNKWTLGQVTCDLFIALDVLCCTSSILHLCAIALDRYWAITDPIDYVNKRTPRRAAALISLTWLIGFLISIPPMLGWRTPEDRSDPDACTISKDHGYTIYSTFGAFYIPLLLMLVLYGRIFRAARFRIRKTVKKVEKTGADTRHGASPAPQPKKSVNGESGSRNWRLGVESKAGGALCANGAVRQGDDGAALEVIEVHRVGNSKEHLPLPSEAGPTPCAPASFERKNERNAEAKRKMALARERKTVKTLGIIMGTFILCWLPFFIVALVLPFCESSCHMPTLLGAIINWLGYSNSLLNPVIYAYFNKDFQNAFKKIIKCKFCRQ
# protocol: 5-HT1A functional assay (cAMP)
# Format: cell-based
# measurementSetup: 10 μM compound, % inhibition of the cAMP accumulation induced by 10 μM FSK, read-out: 5-HT1A cAMP % Inhibition (agonist activity)
experimentalReadout: inhibition at 10 µM (%)
One number for each entry, in %.

Take a look at these entries with their results.
CCCn1c(=O)n(C/C=C/CN2CCN(c3ccccn3)CC2)c2ccccc21: 68
Cn1c(=O)n(C/C=C/CN2CCN(c3cccc(Cl)c3)CC2)c2ccccc21: 62
O=c1n(C/C=C/CN2CCN(c3cccc(C(F)(F)F)c3)CC2)c2ccccc2n1CC1CCCCC1: 61
CCCn1c(=O)n(C/C=C\CN2CC=C(c3ccccc3)CC2)c2ccccc21: 26
CCCn1c(=O)n(C/C=C/CN2CCN(c3cccc(C(F)(F)F)c3)CC2)c2ccccc21: 68
Cn1c(=O)n(C/C=C/CN2CCc3c([nH]c4ccccc34)C2)c2ccccc21: 46
CCCn1c(=O)n(C/C=C/CN2CC=C(c3ccccc3)CC2)c2ccccc21: 9
O=c1n(C/C=C/CN2CC=C(c3ccccc3)CC2)c2ccccc2n1CC1CCCCC1: 13

Please report inhibition at 10 µM for every entry that follows.
1. CCCn1c(=O)n(C/C=C\CN2CCN(c3cccc(Cl)c3)CC2)c2ccccc21
2. Cn1c(=O)n(C/C=C\CN2CC=C(c3ccccc3)CC2)c2ccccc21
3. Cn1c(=O)n(C/C=C/CN2CCN(c3cccc(C(F)(F)F)c3)CC2)c2ccccc21
4. CCCn1c(=O)n(C/C=C/CN2CCN(c3cccc(Cl)c3)CC2)c2ccccc21
5. O=c1[nH]c2ccccc2n1C/C=C\CN1CC=C(c2ccccc2)CC1
6. O=c1[nH]c2ccccc2n1C/C=C\CN1CCN(c2cccc(C(F)(F)F)c2)CC1
7. O=c1n(C/C=C/CN2CCN(c3ccccn3)CC2)c2ccccc2n1CC1CCCCC1

1: 65; 2: 47; 3: 75; 4: 54; 5: 44; 6: 68; 7: 63

Report inhibition at 10 µM for each item below.
1. O=c1[nH]c2ccccc2n1C/C=C/CN1CCN(c2cccc(C(F)(F)F)c2)CC1
2. O=c1n(C/C=C\CN2CC=C(c3ccccc3)CC2)c2ccccc2n1CC1CCCCC1
3. Cn1c(=O)n(C/C=C\CN2CCN(c3cccc(Cl)c3)CC2)c2ccccc21

1: 80; 2: 27; 3: 63
